Source: patent US10167272B2

Target: human muscarinic M1 receptor (Homo sapiens)
Sequence (P11229 1-460): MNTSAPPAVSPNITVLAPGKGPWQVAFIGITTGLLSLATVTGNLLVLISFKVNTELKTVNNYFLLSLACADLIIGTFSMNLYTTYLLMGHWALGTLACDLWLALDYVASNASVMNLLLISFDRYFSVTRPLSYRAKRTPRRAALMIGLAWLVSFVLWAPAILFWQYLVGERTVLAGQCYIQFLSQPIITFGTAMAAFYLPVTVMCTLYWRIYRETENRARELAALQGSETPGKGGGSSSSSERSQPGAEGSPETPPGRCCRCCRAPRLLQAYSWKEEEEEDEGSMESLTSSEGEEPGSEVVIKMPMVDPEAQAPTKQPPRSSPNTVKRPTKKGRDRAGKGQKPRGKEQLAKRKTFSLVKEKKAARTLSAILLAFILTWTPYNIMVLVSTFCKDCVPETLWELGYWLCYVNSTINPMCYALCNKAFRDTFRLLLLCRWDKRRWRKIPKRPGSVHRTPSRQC
Assay: Alphascreen Surefire phospho-ERK1/2 functional assay, M1
Format: cell-based
Details: CHO cells stably expressing human M1; phospho-ERK1/2; read-out: pEC50 M1 (converted)
Attribute measured: EC50 (nM)
Answer in nM, number only, no unit symbol.

# returns recorded EC50 (system: human muscarinic M1 receptor (Homo sapiens)) for CCOC(=O)N1CCC2(CC(N3CCC(N(Cc4ccccc4)C(C)=O)CC3)C2)C1 (single isomer, unassigned) [2-35 Isomer 2] 39.8

Same question for CCOC(=O)N1CCC2(CC(N3CCC(N(C(C)=O)C4CC4)CC3)C2)C1 (single isomer, unassigned) [2-3 Isomer 2] please. 200

Same question for CCOC(=O)N1CCC2(CC(N3CCC(N(CC)CC(F)F)CC3)C2)C1 (single isomer, unassigned) [2-46 Isomer 2] please. 316

Same question for CCOC(=O)N1CCC2(CC(N3CCC(N(CC(C)C)C(C)=O)CC3)C2)C1 (single isomer, unassigned) [2-19 Isomer 1] please. 1260

Same question for CCOC(=O)N1CCC2(CC(N3CCC(N(CC)CCF)CC3)C2)C1 (single isomer, unassigned) [2-45 Isomer 2] please. 631

Same question for CCOC(=O)N1CCC2(CC(N3CCC(N(CCO)c4ccccc4)CC3)C2)C1 (single isomer, unassigned) [2-58 Isomer 2] please. 1260

Same question for CCOC(=O)N1CCC2(CC(N3CCC(N(CC4(C)CCC4)C(C)=O)CC3)C2)C1 (single isomer, unassigned) [2-21 Isomer 1] please. 15800

Same question for CCOC(=O)N1CCC2(CC(N3CCC(N(OC)C(C)=O)CC3)C2)C1 (single isomer, unassigned) [2-32 Isomer 2] please. 2510

---

biological target: human muscarinic M1 receptor (Homo sapiens, UniProt P11229); assay: Alphascreen Surefire phospho-ERK1/2 functional assay, M1; type: cell-based; settings: CHO, read-out: % Emax cf. ACh (M1), CHO cells stably expressing human M1; phospho-ERK1/2; relative to ACh
I'd appreciate it if you could supply Emax values for the items below.
Respond with a number, then the unit of measure.

Emax for CCOC(=O)N1CCC2(CC(N3CCC(N(C(=O)OC)C(C)C)CC3)C2)C1 (single isomer, unassigned) [2-41 Isomer 2] ? 109%

Same question for CCOC(=O)N1CCC2(CC(N3CCC(N(CC(F)F)C(C)=O)CC3)C2)C1 (single isomer, unassigned) [2-24 Isomer 2] please. 91%

Same question for CCOC(=O)N1CCC2(CC(N3CCC(N(CCO)CC(F)(F)F)CC3)C2)C1 (single isomer, unassigned) [2-51 Isomer 2] please. 84%

Same question for CCOC(=O)N1CCC2(CC(N3CCC(N(C(C)=O)C4(C)CCC4)CC3)C2)C1 (single isomer, unassigned) [2-22 Isomer 2] please. 132%

Same question for CCOC(=O)N1CCC2(CC(N3CCC(N(C(=O)C(F)(F)F)C4CC4)CC3)C2)C1 (single isomer, unassigned) [2-4 Isomer 2] please. 104%

Same question for CCOC(=O)N1CCC2(CC(N3CCC(C(C)N(C(C)=O)C4CC4)CC3)C2)C1 (single isomer, unassigned) [2-13 Isomer 2] please. 18%

Same question for CCOC(=O)N1CCC2(CC(N3CCC(N(CC)CCF)CC3)C2)C1 (single isomer, unassigned) [2-45 Isomer 2] please. 30%

Same question for CCOC(=O)N1CCC2(CC(N3CCC(N(CC)CCS(C)(=O)=O)CC3)C2)C1 (single isomer, unassigned) [2-56 Isomer 2] please. 7%

Same question for CCOC(=O)N1CCC2(CC(N3CCC(N(C=O)CC)CC3)C2)C1 (single isomer, unassigned) [2-16 Isomer 2] please. 89%

Same question for CCOC(=O)N1CCC2(CC(N3CCC(C(C)n4cccn4)CC3)C2)C1 (single isomer, unassigned) [2-65 Isomer 1a] please. 45%

Same question for CCOC(=O)N1CC2(CCC(N3CCC(N(C(C)=O)C4CC4)CC3)C2)C1 (racemic) [3-1 Racemic] please. 19%

Same question for CCOC(=O)N1CCC2(CC(N3CCC(N(Cc4cnco4)CC(F)(F)F)CC3)C2)C1 (single isomer, unassigned) [2-62 Isomer 2] please. 85%

Same question for CCOC(=O)N1CCC2(CC(N3CCC(N(CC(F)(F)F)C(C)=O)CC3)C2)C1 (single isomer, unassigned) [2-25 Isomer 2] please. 125%

---

I'd appreciate it if you could supply log10 EC50 values for the items below.
target: human muscarinic M4 receptor (Homo sapiens); construct: expressed in transfected cells; assay: Alphascreen Surefire phospho-ERK1/2 functional assay, M4; format: cell-based; settings: CHO cells stably expressing human M4; phospho-ERK1/2; read-out: pEC50 M4 (converted)
Sequence (P08173 whole entry): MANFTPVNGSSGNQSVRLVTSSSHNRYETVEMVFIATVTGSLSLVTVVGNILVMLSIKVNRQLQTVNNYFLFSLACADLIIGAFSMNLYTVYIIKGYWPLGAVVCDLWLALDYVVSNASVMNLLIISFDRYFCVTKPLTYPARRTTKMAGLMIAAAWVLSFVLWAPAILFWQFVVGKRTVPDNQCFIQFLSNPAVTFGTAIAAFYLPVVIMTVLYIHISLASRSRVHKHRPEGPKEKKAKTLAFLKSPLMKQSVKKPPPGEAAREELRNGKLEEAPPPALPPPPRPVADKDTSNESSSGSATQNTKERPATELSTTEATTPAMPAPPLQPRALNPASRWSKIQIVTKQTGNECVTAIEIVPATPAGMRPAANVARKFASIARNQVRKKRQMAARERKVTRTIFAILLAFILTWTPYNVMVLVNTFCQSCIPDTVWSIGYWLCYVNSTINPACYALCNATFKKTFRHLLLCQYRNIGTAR
Recall that a logarithmic scale is used here: each number is log10 of EC50 in nM.

log10 EC50 for CCOC(=O)N1CCC2(CC(N3CCC(N(C=O)CC)CC3)C2)C1 (single isomer, unassigned) [2-16 Isomer 2] ? 1.60

Same question for CCOC(=O)N1CCC2(CC(N3CCC(N(CC4CC4)C(C)=O)CC3)C2)C1 (single isomer, unassigned) [2-20 Isomer 1] please. 3.00

Same question for CCOC(=O)N1CCC2(CC(N3CCC(N(CC)CCS(C)(=O)=O)CC3)C2)C1 (single isomer, unassigned) [2-56 Isomer 2] please. 3.10

Same question for CCOC(=O)N1CCC2(CC(N3CCC(N(CC)C(=O)N(C)C)CC3)C2)C1 (single isomer, unassigned) [Example 2-44 Isomer 2] please. 2.60

Same question for CCOC(=O)N1CCC2(CC(N3CCC(N(CC(C)(C)F)C(C)=O)CC3)C2)C1 (single isomer, unassigned) [2-26 Isomer 2] please. 1.80

Same question for CCOC(=O)N1CC2(CCC(N3CCC(N(C(C)=O)C4CC4)CC3)C2)C1 (racemic) [3-1 Racemic] please. 1.00

Same question for CCOC(=O)N1CCC2(CC(N3CCC(N(Cc4ccccc4)C(C)=O)CC3)C2)C1 (single isomer, unassigned) [2-35 Isomer 2] please. 2.10

Same question for CCOC(=O)N1CCC2(CC(N3CCC(N(CC(C)(C)OC)C(C)=O)CC3)C2)C1 (single isomer, unassigned) [2-29 Isomer 2] please. 2.20

Same question for CCOC(=O)N1CCC2(CC(N3CCC(N(CCO)C4CC4)CC3)C2)C1 (single isomer, unassigned) [2-49 Isomer 2] please. 3.10

Same question for CCOC(=O)N1CCC2(CC(N3CCC(N(Cc4cnco4)CC(F)(F)F)CC3)C2)C1 (single isomer, unassigned) [2-62 Isomer 2] please. 1.30

Same question for CCOC(=O)N1CCC2(CC(N3CCC(N(CC4(OC)CCC4)C(C)=O)CC3)C2)C1 (single isomer, unassigned) [2-30 Isomer 1] please. 2.10

Same question for CCOC(=O)N1CCC2(CC(N3CCC(N(Cc4ccon4)C4CC4)CC3)C2)C1 (single isomer, unassigned) [2-10 Isomer 2] please. 1.50

Same question for CCOC(=O)N1CCC2(CC(N3CCC(N(CC(C)(F)F)C(C)=O)CC3)C2)C1 (single isomer, unassigned) [2-27 Isomer 2] please. 1.90

Same question for CCOC(=O)N1CCC2(CC(N3CCC(N(CC4(O)CCC4)C(C)=O)CC3)C2)C1 (single isomer, unassigned) [2-31 Isomer 2] please. 1.60

Same question for CCOC(=O)N1CC2(CC(N3CCC(N(C(C)=O)C4CC4)CC3)C2)C1 [Example 1-1] please. 2.50

Same question for CCOC(=O)N1CCC2(CC(N3CCC(N(C(=O)C(F)(F)F)C4CC4)CC3)C2)C1 (single isomer, unassigned) [2-4 Isomer 2] please. 1.50

Same question for CCOC(=O)N1CCC2(CC(N3CCC(N(CC(F)(F)F)C4COC4)CC3)C2)C1 (single isomer, unassigned) [2-54 Isomer 2] please. 1.50

Same question for CCOC(=O)N1CCC2(CC(N3CCC(N(CC(F)(F)F)C(=O)OCCOC)CC3)C2)C1 (single isomer, unassigned) [2-43 Isomer 2] please. 2.10

Same question for CCOC(=O)N1CC2(CCC(N3CCC(N(CC)C(C)=O)CC3)C2)C1 (single isomer, unassigned) [3-3 Isomer 2] please. 0.60

Same question for CCOC(=O)N1CCC2(CC(N3CCC(N(CC(=O)OC)C4CC4)CC3)C2)C1 (single isomer, unassigned) [2-9 Isomer 2] please. 2.00

Same question for CCOC(=O)N1CCC2(CC(N3CCC(N(CC(F)(F)F)C(=O)OC)CC3)C2)C1 (single isomer, unassigned) [2-42 Isomer 2] please. 2.00

Same question for COC(=O)N1CCC2(CC(N3CCC(N(C(C)=O)C4CCC4)CC3)C2)C1 (single isomer, unassigned) [2-15 Isomer 2] please. 2.30

Same question for CCOC(=O)N1CCC2(CC(N3CCC(N(CCO)CC(F)(F)F)CC3)C2)C1 (single isomer, unassigned) [2-51 Isomer 2] please. 1.30

Same question for CCOC(=O)N1CCC2(CC(N3CCC(N(CC4(O)CCC4)C(C)=O)CC3)C2)C1 (single isomer, unassigned) [2-31 Isomer 1] please. 2.30

Same question for CCOC(=O)N1CCC2(CC(N3CCC(N(CC4(C)CCC4)C(C)=O)CC3)C2)C1 (single isomer, unassigned) [2-21 Isomer 1] please. 2.50

Same question for CCN(C(C)=O)C1CCN(C2CC3(CCN(C(=O)OC)C3)C2)CC1 (single isomer, unassigned) [2-17 Isomer 2] please. 2.30
